Biological target: T1, soluble human BLyS (human, UniProt Q9Y275 134-285)
T1 construct: also called hBLyS; human BAFF (BLyS)
Experiment: DELFIA competition, Eu-hBLyS binding to coated BR3
quantity_name: pIC50
One number for each entry, as −log10 of the molar value.

(Q) I have this binder here, tabalumab (antibody, V domains shown) VH: QVQLQQWGAGLLKPSETLSLTCAVYGGSFSGYYWSWIRQPPGKGLEWIGEINHSGSTNYNPSLKSRVTISVDTSKNQFSLKLSSVTAADTAVYYCARGYYDILTGYYYYFDYWGQGTLVTVSS VL: EIVLTQSPATLSLSPGERATLSCRASQSVSRYLAWYQQKPGQAPRLLIYDASNRATGIPARFSGSGSGTDSTLTISSLEPEDFAVYYCQQRSNWPRTFGQGTKVEIKR , and I need its recorded pIC50.
(A) 10.05
